// data source = patent US20250034594A1

- System: gene editing with Cas9
- ASSAY_METHOD_TEXT: Screen of 322 new SSAP proteins, gene editing activity with Cas9 (Table 5)
- Type: cell-based
- RUN_CONDITIONS: normalized
Please assign class 0 whenever Cas9 with SSAP activity (normalized) is at or above 0.07, and class 1 whenever it is below.

[[record]]
molecule = "SSAP_242: SEQ ID NO: 411; Lactococcus sp. S-13 (protein, listed as Lactococcus sp.) SNQITKTQQTLKSPEVKAKFEEVLGKKADGFVASLLSVVGNSNLKTVEANSVMTAAMKAATLDLPIEPSLGFAYVIPYGREAQFQIGYKGFIQLALRSGQLTGLNCGIVYESQFVSYDPLFEELELDFTQQASGDAVGYFASMKLANGFKKVTYWSKEQVLAHKKKFVKSANGPWRDHFDAMAQKTVLKAMLTKYAPASIESKMIQTAITEDDSERFENAKDVTPDEPVISIDEPVTSEVSQNESSAESQEQFPEDEVEELFPIGKS"
cat = "class 0"

[[record]]
molecule = "SSAP_142: SEQ ID NO: 311; Roseburia intestinalis (protein, listed as Roseburia intestinalis) GDIRSELAKKAEQTQGNTKLTKSMSIADLIKAMEPEIQKALPSVITPERFTRMALSALNTTPKLQECTPMSFLAALMNAAQLGLEPNTPLGQAYLIPYKNKNVLECQFQLGYRGMIDLAYRNGHMQSIEAQAVYENDVFSYALGLHPELVHKPTLEEKGALKAFYAIFRLDNGGFRFEVMGKTYIDWYANRYSKAFTSEFSPWKSNYEGMAKKTVIKQLLKYAPLKTEFQRALSTDETIKNSLNVDMGEVLSEDIIDMPCEEVA"
cat = "class 0"

[[record]]
molecule = "SSAP_113: SEQ ID NO: 282; Acinetobacter sp. RIT592 (protein, listed as Acinetobacter sp.) ADLKNKLANKAAGTVTKTSPNAGMKQLMKSMSKEIEAALPSHMSSERFQRVALTAFGNNPKLMNCDPMSFIAAMMDSAQLGLEPNTPLGQAYLIPYGTKVQFQVGYKGLLELALRSGKIKTLYAHEVRENDTFEVKYGLHQDLIHEPVLKGNRGEVIGYYAVYHLDTGGHSFVFMTKDEVLEHAKGKSKTFNNGPWQTDFDAMAKKTVIKQLLKYAPLSIEMQKAVSSDETVKSKIDEDMSLVVDESDSIEANFEIKEDEDGQLDVYVK"
cat = "class 1"

[[record]]
molecule = "SSAP_169: SEQ ID NO: 338; Streptomyces showdoensis (protein, listed as Streptomyces showdoensis) TSDARNAVARRAANVGQVEQAGEQPKPTMAQQIERMKPEIARALPKHMDADRIARIALTLIRKNPDLANCTTESFLGALMTCSQLGFEPGSPTQEAYIIPRKGQAEFQLGYQGMVTLFYQHPMASSVKVETVRENDYFEHEEGLEERLIHRPFADGPRGKAIAYYSVARLINGGRTFKVMYPAEIEERRQKLPSKNSPAWRDNYDEMAKKTVLRNHFKALPKSAELARALAHDGTVRTDWQPDAIDVPPEYLSEPQRPELEAGAQ"
cat = "class 1"

[[record]]
molecule = "SSAP_101: SEQ ID NO: 270; Halomonadaceae bacterium R4HLG17 (protein, Halomonadaceae bacterium R4HLG17) SEVATQDTLGKELQQHSGQQKKPMPTTIQGMLKDPRFTSQIARALPKHITPDRITRIALTEVNKTPALGKCDPVTLFGSIIQSAQLGLELGGALGHAYLVPYGNQAQFIIGYRGMIDLARRSGQMVSLQAHTVHDNDEFDFEYGLDEKLRHVPARGDRGPMVAVYSVAKLVGGGHQIEVMWKEDVDAIRSKSKAGNSGPWRDHYEEMAKKTAIRRLFKYLPVSVEMQKAVALDEQAEAGVQDNNVFDGEFSYGEAE"
cat = "class 1"

[[record]]
molecule = "SSAP_259: SEQ ID NO: 428; Virgibacillus chiguensis (protein, listed as Virgibacillus chiguensis) ATNSSLKNQIANKGNGNQNTPQGYTVKQLMSASSVKNRFEETLGKKAPQFMASVINLVNGDTNLQKCDQMSVVSSAMVAAALDLPIDKNLGYAWVVPYGNKATFQMGYKGYIQLALRTGQYKNINVIEVYEGEVKSFNRLTEEIELEFEGKESDKVIGYVGYFELINGFRKTVYWSKDEIERHKKRFSKTGFAWKDNYDAMAKKTVIRNMLNKWGILSIDMQTAVTTDGNAVTQDFEQEDSGLVIDAEFSEVNEASEGQQEIKFENADA"
cat = "class 1"

[[record]]
molecule = "SSAP_168: SEQ ID NO: 337; Romboutsia lituseburensis (protein, listed as Romboutsia lituseburensis) SNLKNVLKNQEDKGQGITVNPTYAMKQLMIKMKNDIDLALPKNLSSERFQKVSMSAFNNNEKLQNCEPTTFIAAMMQSAQLGLEPNTPLGQVYLIPHNLNGVDKVQFQVGYKGLLQLAHRSGKLKTLYAHEVKENDEFEIDYGLEQKLIHKPLLKGNRGDVIGYYAVYHLEPSGYSFEFMTYDEVAKHGKKYSKDFEGGIWEKDFDSMAKKTVIKKLLKYAPLSIEMQKAVAFDESVKSSIDSDMLLVESIGE"
cat = "class 0"

[[record]]
molecule = "SSAP_26: SEQ ID NO: 195 (protein) TVQLVQPRNSDEYDFDQTKLDLIKRTICKGATNDELQLFIHACKRTGLDPFMRQIFAVKRWDSSTKKEIMTIQTGIDGYRLIADRTGKYAPGKDTEFGYDNKGNIRWAKAYIKKMTPDGQWHEISAIAFWEEYVQTTREGKSTLFWLKKSHIMLSKCTEALALRKTFPAERSGIYTKEEMAQEFSPLEEHLVERIAASRNDQGRS"
cat = "class 0"

